Test system: L1210 leukemia ip in BDF1 mice, survival T/C
method.notes: NCI In Vivo Anticancer Drug Screen. Data for tumor model L1210 Leukemia (intraperitoneal) in B6D2F1 (BDF1) mice
measurement.context: endpoint: mean survival time; dose: 100.0 mg/kg/injection; schedule: Q01DX001 (ip); vehicle: saline; higher = longer survival
Toxic doses and inconclusive results are not listed.
value.type: T/C

compound: ON=C1CCSCC1
value.type: T/C
data.value: 107 % of control

compound: CN1CCCCCC(=N\O)/C(=N/O)CCCCC1
value.type: T/C
data.value: 103 % of control

compound: O=C(c1ccccc1)c1ccc(Cl)c([N+](=O)[O-])c1
value.type: T/C
data.value: 100 % of control

compound: C#CC(O)(c1ccccc1)c1ccccc1
value.type: T/C
data.value: 103 % of control

compound: O=C(Oc1ccc(Br)cc1)c1cc([N+](=O)[O-])ccc1O
value.type: T/C
data.value: 98 % of control

Just so you know, measured T/C for CC1C(O)CN1C(C)(C)C (stereo not drawn) came out at 105 % of control

Just so you know, measured T/C for `CC(=O)CC(=O)Nc1ccc(Cc2ccccc2)cc1` came out at 93 % of control

Just so you know, measured T/C for `COc1ccc(N2CCN(c3c4c(nc5ccccc35)CCCCC4)CC2)cc1` came out at 95 % of control

---

System: L1210 leukemia ip in BDF1 mice, survival T/C
method.notes: NCI In Vivo Anticancer Drug Screen. Data for tumor model L1210 Leukemia (intraperitoneal) in B6D2F1 (BDF1) mice
measurement.context: endpoint: mean survival time; dose: 100.0 mg/kg/injection; schedule: Q04DX003 (ip); vehicle: saline; higher = longer survival
Toxic doses and inconclusive results are not listed.
value.type: T/C

Below are worked cases with known answers.
molecule: CCN(CC)C(=O)CN
target.system: L1210 leukemia ip in BDF1 mice, survival T/C
data.value: 103 % of control
//
molecule: c1ccc(CC(Cc2ccccc2)c2nc3ccccc3s2)cc1
target.system: L1210 leukemia ip in BDF1 mice, survival T/C
data.value: 98 % of control
//
molecule: O=c1oc2ccccc2c(=S)n1-c1ccccc1
target.system: L1210 leukemia ip in BDF1 mice, survival T/C
data.value: 105 % of control
//
molecule: COCc1nnc2ncnc(OC)c2n1
target.system: L1210 leukemia ip in BDF1 mice, survival T/C
data.value: 98 % of control
//
molecule: CC(=O)OC1CCC2(C)C(=CC(=O)C3=C2CCC2(C)C3CCC2C(C)/C=C/C(C)C(C)C)C1 (configuration not stated)
target.system: L1210 leukemia ip in BDF1 mice, survival T/C
data.value: 88 % of control
//
molecule: CCOC(=O)N1Cc2cc3cc(OC)ccc3nc2C1
target.system: L1210 leukemia ip in BDF1 mice, survival T/C
data.value: 94 % of control

Just so you know, measured T/C for `Nc1nc2ccc([N+](=O)[O-])cc2s1` came out at 97 % of control

Just so you know, measured T/C for COC(=O)C1(C)CCC(c2ccc(OC)cc2)CC1=O (configuration not stated) came out at 92 % of control

Just so you know, measured T/C for `O=[N+]([O-])c1cc(Br)c(Br)cc1N1CCCC1` came out at 98 % of control

Just so you know, measured T/C for `N#CCCNc1ccc(NC(=O)C(F)(F)F)cc1` came out at 87 % of control

Just so you know, measured T/C for O=C1OC(=O)C2C3C=CC(CC3)C12 (configuration not stated) came out at 98 % of control

Just so you know, measured T/C for C[N+]1(C)C2CC(=O)CC1C1CC12 (configuration not stated) (tested in a mixture with another compound) came out at 94 % of control

---

Test system: L1210 leukemia ip in BDF1 mice, survival T/C
method.notes: NCI In Vivo Anticancer Drug Screen. Data for tumor model L1210 Leukemia (intraperitoneal) in B6D2F1 (BDF1) mice
measurement.context: endpoint: mean survival time; dose: 400.0 mg/kg/injection; schedule: Q04DX003 (ip); vehicle: Klucel (hydroxypropylcellulose) (HPC); higher = longer survival
Description: The antitumor activity of compounds was measured in mice bearing transplantable tumors. Survival or tumor size were measured and the results are expressed as the measurement made in the treated group (T) divided by the measurement made in the vehicle treated control group (C). The tumor model used in this assay is L1210 Leukemia (intraperitoneal) in B6D2F1 (BDF1) mice
Inconclusive results and toxic doses are left out.
value.type: T/C

Below are worked cases with known answers.
molecule: COC(=O)C1CC2(CNc3ccccc32)CN1C (stereo unspecified)
data.value: 89 % of control
--
molecule: Cc1c(Cl)cccc1NC(=O)OC(C)C
data.value: 97 % of control
--
molecule: Cc1ccc(NC(=O)OCCOc2ccc([N+](=O)[O-])cc2)c([N+](=O)[O-])c1
data.value: 95 % of control
--
molecule: CC(=O)OC(C(=O)c1ccccc1)c1ccccc1 (stereo unspecified)
data.value: 91 % of control
--
molecule: O=[N+]([O-])CC(O)C(F)(F)C(F)(F)C(F)(F)F (stereo unspecified)
data.value: 100 % of control
--
molecule: O=[N+]([O-])c1cc([N+](=O)[O-])c(/C=C/c2ccccc2)c([N+](=O)[O-])c1/C=C/c1ccccc1
data.value: 97 % of control
--
molecule: Cc1cccc(C)c1C(Cl)CS(=O)(=O)c1ccccc1 (stereo unspecified)
data.value: 107 % of control
--
molecule: COc1ccc(Br)c(CCC(C)C)c1O
data.value: 101 % of control

Just so you know, measured T/C for `COc1cccc(C(=O)O)c1OS(=O)(=O)c1ccccc1` came out at 94 % of control

Just so you know, measured T/C for `O=C1OCC/C1=C/CCCC/C=C1\CCOC1=O` came out at 94 % of control

Just so you know, measured T/C for O=C(c1ccccc1)C(Br)C(Br)C(=O)c1ccccc1 (stereo unspecified) came out at 90 % of control

---

Measured T/C, listed per entry for reference.
Tested on: L1210 leukemia ip in BDF1 mice, survival T/C
method.notes: NCI In Vivo Anticancer Drug Screen. Data for tumor model L1210 Leukemia (intraperitoneal) in B6D2F1 (BDF1) mice
measurement.context: endpoint: mean survival time; dose: 100.0 mg/kg/injection; schedule: Q04DX003 (ip); vehicle: saline with Tween-80; higher = longer survival
Inconclusive results and toxic doses are left out.

Just so you know, measured T/C for `Oc1c(Br)cc(Br)cc1C=Nc1ccc(Br)cc1.Oc1c(Br)cc(Br)cc1C=Nc1ccc(Br)cc1.[Co]` came out at 95 % of control

Just so you know, measured T/C for `Cc1cc(Br)c2ccccc2c1NS(=O)(=O)c1ccccc1` came out at 109 % of control

Just so you know, measured T/C for `Cc1ccccc1N` came out at 101 % of control

Just so you know, measured T/C for CC1CCC(C(C)C)C(N(C)Cc2cc(Br)cc(Br)c2O)C1 (stereo unspecified) came out at 104 % of control

Just so you know, measured T/C for `CCCCCCCCCCOC(=O)CCN1CC1` came out at 109 % of control

Just so you know, measured T/C for `Cc1ccc(N=Nc2ccc(N(C)C)cc2)c2cccnc12` came out at 113 % of control

---

Measured T/C, listed per entry for reference.
Tested on: L1210 leukemia ip in BDF1 mice, survival T/C
method.notes: NCI In Vivo Anticancer Drug Screen. Data for tumor model L1210 Leukemia (intraperitoneal) in B6D2F1 (BDF1) mice
measurement.context: endpoint: mean survival time; dose: 50.0 mg/kg/injection; schedule: Q01DX009 (ip); vehicle: saline; higher = longer survival
Inconclusive results and toxic doses are left out.

Below are worked cases with known answers.
compound: COc1ccc(CCNC(=S)NCCc2ccc(OC)c(OC)c2)cc1OC
target.system: L1210 leukemia ip in BDF1 mice, survival T/C
T/C: 92 % of control
//
compound: [Co].[NH-]CC[N-]CCO.[NH-]CC[N-]CCO
target.system: L1210 leukemia ip in BDF1 mice, survival T/C
T/C: 102 % of control
//
compound: CC(C)(C)CN
target.system: L1210 leukemia ip in BDF1 mice, survival T/C
T/C: 98 % of control
//
compound: C#CCN(C)C(C)=O
target.system: L1210 leukemia ip in BDF1 mice, survival T/C
T/C: 102 % of control

Just so you know, measured T/C for `CC(=O)NCC1(c2ccccc2)CCN(CCCC(=O)c2ccc(F)cc2)CC1` came out at 109 % of control

Just so you know, measured T/C for CCC(c1ccc2cc(OC)ccc2c1)C(C)(C)C(=O)F (configuration not stated) came out at 100 % of control

Just so you know, measured T/C for `CSC(N)=S` came out at 96 % of control

---

Measured T/C, listed per entry for reference.
Tested on: L1210 leukemia ip in BDF1 mice, survival T/C
method.notes: NCI In Vivo Anticancer Drug Screen. Data for tumor model L1210 Leukemia (intraperitoneal) in B6D2F1 (BDF1) mice
measurement.context: endpoint: mean survival time; dose: 5.0 mg/kg/injection; schedule: Q01DX001 (ip); vehicle: saline; higher = longer survival
Inconclusive results and toxic doses are left out.

Below are worked cases with known answers.
compound: CCC[CH2][Sn]([CH2]CCC)([CH2]CCC)[S]C(=S)NCCNC(=S)[S][Sn]([CH2]CCC)([CH2]CCC)[CH2]CCC
value.type: T/C
data.value: 108 % of control
//
compound: COc1cc(O)c2ncccc2c1O
value.type: T/C
data.value: 95 % of control
//
compound: C=C[P+](c1ccccc1)(c1ccccc1)c1ccccc1
value.type: T/C
data.value: 115 % of control
//
compound: CSc1ccccc1N.[Cl][Cu][Cl]
value.type: T/C
data.value: 103 % of control

Kindly review the next compound as well.
Just so you know, measured T/C for COC1C(O)C(C)OC(O[C@@H]2C[C@H]3CC[C@@H]4[C@H](CC[C@]5(C)[C@@H](C6=CC(=O)OC6)CC[C@]45O)[C@@]3(C)[C@H](O)C2)C1O (stereo not given in full) came out at 94 % of control
